# system tested: Rap guanine nucleotide exchange factor 4 (Homo sapiens)
# assay procedure: Confirmatory qHTS for agonist of cAMP-regulated guanine nucleotide exchange factor 4 (EPAC2) (AID 1645884);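 further: nucleotide exchange releases bodipy-GDP from Rap1 and this lowers its fluorescence; on the % scale 0 is the no-effect control and ±100 the full control effect; nearly all actives have a fitted effect of over 65% in size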
# measurement context: EPAC2 GEF activity, Rap1B-BODIPY-GDP fluorescence; series mostly up to 154 µM
Inconclusive results are not listed. Activity calls are given as the source filed them. The call rests on the fitted dose curve; in most records, active means well fitted activation curve with a large enough effect; inconclusive means small, poorly fitted or top-dose-only effect; inactive means no such curve, though single readings can be large or run the other way.

| smiles representation | outcome |
| --- | --- |
| Cc1ccccc1-c1ccc2ncnc(N(C)Cc3ccco3)c2c1 | inactive |
| O=C(O)c1cc(O)c2c(c1)C(=O)c1cc(O)cc(O)c1C2=O | inactive |
| COc1ccc2[nH]cc(CCNc3nc(-c4cccc(C#N)c4)nc4ccccc34)c2c1 | inactive |

----------
# assay procedure: qHTS Assay for Lipid Storage Modulators (AID 1519)
# measurement context: Drosophila S3 cells, BODIPY lipid droplet/cell ratio, laser cytometry; measured here: lipid channel max response; cells loaded with oleic acid
Inconclusive results are not listed.
# reported max response; entries follow
property measured: max response (%)

| molecule | property measured | unit name | observed |
| --- | --- | --- | --- |
| O=C(O)CNC(=O)[C@@H](CS)Cc1ccccc1 | max response | % | -4.92 |
| O=C1CC[C@@]23/C=C/C(=O)NCCCCNCCCNC(=O)/C=C/c4ccc(c2c4)OC3C1 (stereo partly specified) | max response | % | 1.79 |
| COc1ccc(C(=O)N2CCC3(CC2)CN(c2ccc(-c4ccccc4)cc2)C3)cc1 | max response | % | 7.61 |
| COc1ccc(CNc2ncnc3ccc(-c4ccc(C(=O)N(C)C)cc4)cc23)c(OC)c1 | max response | % | 9.92 |
| COc1ccc2[nH]cc(CCNc3ncnc4ccc(-c5ccccc5CN(C)C)cc34)c2c1 | max response | % | 5.15 |
| O=C(c1ccncc1)N1CCC2(CC1)CCN(c1ccccn1)CC2 | max response | % | 20.3 |
| O=C(c1ccco1)N1CCC2(CCN(Cc3nccs3)CC2)CC1 | max response | % | 12.6 |
| COC(=O)c1c(C)c2c(c(C)c1O)OC(=O)c1c(C)c(Cl)c(O)c(Cl)c1O2 | max response | % | 1.33 |
| Cc1cnc(CNc2ncnc3ccc(-c4cccc(C#N)c4)cc23)cn1 | max response | % | 8.37 |
| COc1ccccc1-c1ccc2ncnc(NCc3cnc(C)cn3)c2c1 | max response | % | 14 |
| COc1ccccc1CN1CCCC2(CCN(S(=O)(=O)c3ccccc3)CC2)C1 | max response | % | 1.25 |
| CN(C)CC[C@H](c1ccc(Br)cc1)c1ccccn1 | max response | % | -5.95 |
| COC(=O)N1CCC2(CCN(Cc3ccc(C#N)cc3)CC2)CC1 | max response | % | 14.3 |
| Cc1cccc(CNc2ccnc(-c3cccc(NS(C)(=O)=O)c3)n2)c1 | max response | % | -1.23 |
| Cc1noc(C)c1C(=O)N1CCC2(CCN(Cc3ccncc3)CC2)CC1 | max response | % | 9.36 |
| O=C(c1csnn1)N1CCC[C@@]2(CCN(Cc3cc(C(F)(F)F)cc(C(F)(F)F)c3)C2)C1 | max response | % | 22.1 |
| C=C[C@](C)(O)CCC=C(C)C | max response | % | 20.7 |
| COc1cccc(Cn2c(=O)c(C)nc3cnc(Nc4cccc(OC)c4)nc32)c1 | max response | % | 6.74 |
| CS(=O)(=O)Nc1cccc(-c2ccc3ncnc(NCc4cccnc4)c3c2)c1 | max response | % | 13.1 |
| CNc1nc(-c2ccccc2C(F)(F)F)nc2ccccc12 | max response | % | 19.8 |
| N#CCCn1c(=O)c(-c2cc(F)cc(F)c2)nc2cnc(Oc3ccccc3)nc21 | max response | % | 17.1 |
| COc1ccc(-c2nc3cnc(N4CCNCC4)nc3n(C3CC3)c2=O)cc1 | max response | % | 6.87 |
| C[C@@H]1CCC[C@H](C)N1NC(=O)c1ccc(Cl)c(S(N)(=O)=O)c1 | max response | % | 17 |
| COCC(=O)N1CCC2(CC1)CCN(C(=O)NC(C)C)CC2 | max response | % | 16.2 |
| CC(=O)OC1CC2C(C)(C)CCC(=O)[C@@]2(C)C2CC[C@@]3(C)C(c4ccoc4)OC(=O)C4OC43[C@]12C (stereo partly specified) | max response | % | 3.26 |
| Cc1cccc(CNc2ccnc(-c3ccccc3CN(C)C)n2)c1 | max response | % | -5.18 |
| Cc1noc(C)c1-c1nc(NCc2cccnc2)c2ccccc2n1 | max response | % | 21 |
| CCN1C(=O)N[C@@H](c2ccccc2)C1=O | max response | % | -9.51 |
| COCCn1c(=O)c(-c2ccc(F)cc2)nc2cnc(Oc3ccc(OC)cc3)nc21 | max response | % | -27.4 |
| CN1CCC2(CC1)CCN(S(=O)(=O)c1ccccc1)CC2 | max response | % | 9.03 |
| COc1ccc(C(=O)N2CCC3(CCCN(Cc4ccc(C#N)cc4)C3)CC2)cc1 | max response | % | -2.86 |
| COc1ccc(C(=O)N2CCC3(CCCN(CC(C)C)C3)CC2)cc1 | max response | % | 26.9 |
| N#Cc1ccc(CN2CC[C@@]3(CCCN(C(=O)c4ccncc4)C3)C2)cc1 | max response | % | 26 |
| COc1ccc(C(=O)N2CCC[C@@]3(CCN(CC(C)C)C3)C2)cc1 | max response | % | 13.2 |
| O=C(c1cccc(F)c1)N1CCC2(CCCN(C(c3ccccc3)c3ccccc3)C2)CC1 | max response | % | 19.7 |
| CCn1cc(C(=O)O)c(=O)c2cc(F)c(N3CCN[C@@H](C)C3)c(F)c21 | max response | % | -3.89 |

----------
# assay procedure: NFAT Signaling Pathway (AID 444);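 further: carbachol stimulus at about its EC50 of 1 µM final; on the % scale 0 is the no-effect control and ±100 the full control effect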
# measurement context: Jurkat NFAT-bla M1, carbachol, beta-lactamase ratio, 5 h; at 7.69 µM (top of the series) unless noted
Records with an inconclusive call do not appear.
# reported activity change, negative = inhibition; entries follow

| smiles representation | activity change, negative = inhibition, % |
| --- | --- |
| COC(=O)N1CCC2(CCN(C(=O)Nc3cccc(F)c3)CC2)CC1 | -11.6 |
| O=C(c1cccc(F)c1)N1CCC2(CC1)CCN(c1ncccn1)CC2 | 2.49 |
| O=S(=O)(c1ccccc1)N1CCC[C@@]2(CCN(c3cccc(-c4ccccc4)c3)C2)C1 | -13.7 |
| COc1ccc(Oc2ncc3nc(-c4ccc(OC)cc4)c(=O)n(CCC#N)c3n2)cc1 | 7.68 |
| O=c1c(-c2cccc(F)c2)nc2cncnc2n1-c1ccccc1 | -2.26 |
| COc1ccc(NC(=O)N2CCCC3(CCN(C(=O)c4cc(C(F)(F)F)cc(C(F)(F)F)c4)CC3)C2)cc1 | 12.1 |
| COc1cccc(-c2cncnc2NCc2ccc(OC)cc2OC)c1 | -10.1 |
| COCCn1c(=O)c(CCc2ccccc2)nc2cnc(Nc3ccccc3)nc21 | 10.5 |
| O=C(Nc1cccc(F)c1)N1CC[C@@]2(CCCN(C(=O)c3cnccn3)C2)C1 | 12.9 |
| COCCn1c(=O)c(C)nc2cnc(OCc3ccccc3)nc21 | -3.44 |
| Cc1cccc(CNc2cc(-c3ccc(C(=O)N(C)C)cc3)ncn2)c1 | 13.4 |
| N#Cc1cccc(NC(=O)N2CC[C@@]3(CCCN(C(=O)c4cc(C(F)(F)F)cc(C(F)(F)F)c4)C3)C2)c1 | 5.16 |
| Cc1cccc(CNc2nc(-c3ccccc3CN(C)C)nc3ccccc23)c1 | -22.2 |
| c1nc(NCCN2CCOCC2)c2cc(-c3ccoc3)ccc2n1 | -0.57 |
| COc1ccc(-c2nc3cnc(N(C)C)nc3n(C[C@H]3CCCO3)c2=O)cc1 | -3.89 |
| CS(=O)(=O)Nc1cccc(-c2cncnc2-n2ccnc2)c1 | 14.5 |
| O=C(c1cccc(F)c1)N1CCC[C@@]2(CCN(Cc3ccncc3)C2)C1 | -14.7 |
| Cn1c(=O)c(-c2ccc(F)cc2)nc2cnc(OCc3ccccc3)nc21 | 19.9 |
| COCCn1c(=O)cnc2cnc(N(C)C)nc21 | 7.07 |
| CNc1ccnc(-c2cccc(NS(C)(=O)=O)c2)n1 | 18.6 |
| N#Cc1ccccc1-c1ccc2ncnc(NCCN3CCOCC3)c2c1 | -6.3 |
| Cc1noc(C)c1-c1cncnc1N1CCN(C)CC1 | -0.298 |

----------
Each record here notes measured max response.
# assay procedure: qHTS Assay for Lipid Storage Modulators (AID 1519)
# measurement context: Drosophila S3 cells, BODIPY lipid droplet/cell ratio, laser cytometry; measured here: cell count channel max response; cells loaded with oleic acid
Results filed as inconclusive are left out.

| compound | max response / % |
| --- | --- |
| O=C(c1cc(C(F)(F)F)cc(C(F)(F)F)c1)N1CCC2(CC1)CN(c1ccncc1)C2 | -2.54 |
| O=C(C1CCCCC1)N1CC(=O)N2CCc3ccccc3[C@@H]2C1 | 3.5 |
| N#Cc1ccc(CN2CC3(CCN(C(=O)c4ccco4)CC3)C2)cc1 | 18.6 |
| CC1(C)S[C@@H]2[C@H](NC(=O)[C@H](C(=O)O)c3ccsc3)C(=O)N2[C@H]1C(=O)O | -10.5 |
| CN(C)Cc1ccccc1-c1cncnc1NCc1cccnc1 | 3.75 |
| Cc1occc(=O)c1O | 0.823 |
| Cn1cccc1C(=O)N1CCC2(CC1)CN(C(=O)Nc1cccc(F)c1)C2 | -3.47 |
| CN(C)c1ccc(-c2cncnc2NCc2ccccc2)cc1 | -3.1 |
| COc1ccccc1CNc1ncncc1-c1ccc(N(C)C)cc1 | -12.6 |
| COc1ccc(C(=O)N2CCC3(CCCN(c4ccccc4)C3)CC2)cc1 | 1.98 |
| COc1ccc(Oc2ncc3nc(-c4cc(F)cc(F)c4)c(=O)n(C)c3n2)cc1 | 13.4 |
| COCC(=O)N1CCC2(CCN(Cc3nccs3)CC2)CC1 | 9.94 |
| CC(C)=CCC/C(C)=C/CC/C(C)=C/CC/C(C)=C/CC/C(C)=C/CC/C(C)=C/CC/C(C)=C/CC/C(C)=C/CC/C(C)=C/CO | 6.17 |
| N#Cc1cccc(NC(=O)N2CC3(CCN(C(=O)c4ccco4)CC3)C2)c1 | 3.49 |
| CC[C@H](NC(C)C)[C@H](O)c1ccc(O)c(O)c1 | -4.02 |
| COCC(=O)N1CCC2(CCCN(C(c3ccccc3)c3ccccc3)C2)CC1 | 15.7 |
| COc1ccc(NC(=O)N2CCCC3(CCN(S(=O)(=O)c4ccccc4)CC3)C2)cc1 | 6.07 |
| CCNc1ncc2ncc(=O)n(C[C@H]3CCCO3)c2n1 | 16.3 |
| N#Cc1cccc(NC(=O)N2CC3(CCN(C(=O)c4cccc(F)c4)CC3)C2)c1 | 17 |
| COc1ccc(C(=O)N2CCC3(CCCN(C(=O)Nc4cccc(C#N)c4)C3)CC2)cc1 | 0.951 |
| Cc1cccc(CNc2cc(-c3ccc(C(=O)N(C)C)cc3)ncn2)c1 | 0.996 |
| COCC(=O)N1CCC2(CCN(Cc3ccccc3OC)CC2)CC1 | -22.5 |
| COc1ccc(NC(=O)N2CC3(CCN(C(=O)c4csnn4)CC3)C2)cc1 | 7.84 |
| Cc1noc(C)c1C(=O)N1CCC2(CCCN(C(=O)Nc3ccccc3)C2)CC1 | 20.4 |
| COCC(=O)N1CCC2(CC1)CN(c1cccc(-c3ccccc3)c1)C2 | -3.81 |
| COc1ccccc1CN1CC2(CCN(C(=O)c3cc(C(F)(F)F)cc(C(F)(F)F)c3)CC2)C1 | 11.2 |
| O=C(c1cccc(F)c1)N1CCC[C@@]2(CCN(c3ccccc3)C2)C1 | 8.88 |
| COc1ccccc1CN1CCCC2(CCN(C(=O)c3ccco3)CC2)C1 | 5.74 |
| COCCNc1ncnc2ccc(-c3ccc(N(C)C)cc3)cc12 | -1.3 |
| O=C(c1cc(C(F)(F)F)cc(C(F)(F)F)c1)N1CCC2(CCCN(c3ccccc3)C2)CC1 | 1.58 |
| N#Cc1cccc(NC(=O)N2CC[C@@]3(CCCN(C(=O)c4cnccn4)C3)C2)c1 | 14.7 |
| O=C(Cc1cccs1)NC1C(=O)N2C(C(=O)[O-])=C(C[n+]3ccccc3)CSC12 (stereo not drawn) | 18 |
| CC(C)CN1CC2(CCN(S(=O)(=O)c3ccccc3)CC2)C1 | -17.9 |
| CN(C)Cc1ccccc1-c1ccc2ncnc(N3CCOCC3)c2c1 | 6.66 |
| COC(=O)N1CCC[C@@]2(CCN(Cc3cc(C(F)(F)F)cc(C(F)(F)F)c3)C2)C1 | 12.3 |
| C[N+](C)(C)CC(O)CC(=O)O (stereo not drawn) | 12.3 |
| Cn1c(=O)c2c(ncn2C[C@@H](O)CO)n(C)c1=O | -0.539 |
| CN(C)Cc1ccccc1-c1cncnc1NC1CC1 | 18.3 |
| O[C@@](CCN1CCCCC1)(c1ccccc1)C1CCCCC1 | -17.3 |
| Cn1cccc1C(=O)N1CCC2(CCCN(Cc3ccncc3)C2)CC1 | 1.45 |
| CN1CCN(c2ncc3nc(-c4cn(C)c5ccccc45)c(=O)n(C)c3n2)CC1 | 7.27 |
| O=S(=O)(c1ccccc1)N1CCC2(CCN(c3ccc(-c4ccccc4)cc3)CC2)CC1 | 18.6 |
| O=C(c1cccc(F)c1)N1CCC2(CC1)CN(c1ncccn1)C2 | 1.53 |
